Please go through the items and note down their Cmax.
- measurement description: Individual predicted steady‐state exposures
- Format: in vivo, human
- condition label: human, plasma, intravenous, C max,ss geometric mean (CV), SIRS at baseline: Yes
Express your answer as a number followed by its unit.

*Q* Look at this compound and give its reported Cmax. CC(C)(O/N=C(\C(=O)N[C@@H]1C(=O)N2C(C(=O)[O-])=C(C[n+]3ccccc3)CS[C@H]12)c1csc(N)n1)C(=O)O [Ceftazidime, ceftazidime]
*A* 71500 ng/mL

*Q* Subsequent entry: NC(=O)[C@@H]1CC[C@@H]2CN1C(=O)N2OS(=O)(=O)O [Avibactam, avibactam]
*A* 12600 ng/mL
